Provenance of the data: patent US9624214B2

assaySystem: recombinant guanylate cyclase reporter cell line (Rattus norvegicus, UniProt P19686+P20595)
Construct: expressed in transfected cells
Sequence (P20595 whole entry): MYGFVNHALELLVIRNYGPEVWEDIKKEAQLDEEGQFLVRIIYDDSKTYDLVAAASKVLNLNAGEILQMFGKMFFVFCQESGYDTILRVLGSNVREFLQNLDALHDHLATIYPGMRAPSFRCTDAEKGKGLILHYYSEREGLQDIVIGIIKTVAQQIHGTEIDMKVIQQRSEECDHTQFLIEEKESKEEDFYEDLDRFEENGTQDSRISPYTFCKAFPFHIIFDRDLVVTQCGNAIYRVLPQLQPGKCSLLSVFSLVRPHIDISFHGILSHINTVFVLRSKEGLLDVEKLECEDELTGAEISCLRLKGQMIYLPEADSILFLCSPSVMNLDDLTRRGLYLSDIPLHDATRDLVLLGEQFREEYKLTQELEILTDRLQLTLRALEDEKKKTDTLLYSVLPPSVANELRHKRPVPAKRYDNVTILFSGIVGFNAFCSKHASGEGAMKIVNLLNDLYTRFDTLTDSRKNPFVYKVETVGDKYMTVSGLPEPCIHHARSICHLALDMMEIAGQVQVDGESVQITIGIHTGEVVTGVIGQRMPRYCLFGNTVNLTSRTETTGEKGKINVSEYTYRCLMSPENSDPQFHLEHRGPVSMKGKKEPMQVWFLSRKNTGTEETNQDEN
Sequence (P19686 whole entry): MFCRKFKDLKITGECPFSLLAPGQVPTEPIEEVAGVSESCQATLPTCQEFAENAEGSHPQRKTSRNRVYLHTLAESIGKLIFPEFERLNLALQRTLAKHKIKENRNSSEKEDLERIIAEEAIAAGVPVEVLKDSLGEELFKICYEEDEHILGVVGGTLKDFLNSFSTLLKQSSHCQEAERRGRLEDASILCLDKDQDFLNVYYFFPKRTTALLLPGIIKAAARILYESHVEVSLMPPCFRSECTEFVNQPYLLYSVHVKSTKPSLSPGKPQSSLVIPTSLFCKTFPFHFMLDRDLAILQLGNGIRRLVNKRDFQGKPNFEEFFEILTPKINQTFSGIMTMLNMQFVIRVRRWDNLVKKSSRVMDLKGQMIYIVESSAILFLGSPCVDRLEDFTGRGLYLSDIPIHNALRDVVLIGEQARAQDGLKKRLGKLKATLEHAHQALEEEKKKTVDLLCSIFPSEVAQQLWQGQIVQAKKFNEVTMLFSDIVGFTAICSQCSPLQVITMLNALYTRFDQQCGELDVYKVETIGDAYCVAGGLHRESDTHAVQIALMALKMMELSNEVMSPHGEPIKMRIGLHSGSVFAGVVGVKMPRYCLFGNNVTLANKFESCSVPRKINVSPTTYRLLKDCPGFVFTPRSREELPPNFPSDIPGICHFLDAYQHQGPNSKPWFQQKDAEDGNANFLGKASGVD
protocol: B-2. Action on recombinant guanylate cyclase reporter cell line
Type: cell-based
assaySetup: MEC = minimal effective concentration; in some cases mean values from individual determinations
Structures can show the parent of a compound that is named as a salt.
attributeMeasured: MEC (µM)

Record excerpt, results attached:
{"compound": "CCCC(C)(N)CNC(=O)c1c(C)nc2c(OCc3c(F)cccc3F)cc(C)cn12 (racemic) [Example 232]", "MEC / µM": 0.10}
{"compound": "Cc1cc(OCc2c(F)cccc2F)c2nc(C)c(C(=O)NC3CCNCC3(F)F)n2c1 (racemic)", "MEC / µM": 0.10}
{"compound": "Cc1nc2c(OCc3c(F)cccc3F)cccn2c1C(=O)NCCN1CCN(C2CC2)CC1", "MEC / µM": 1.00}
{"compound": "C#Cc1cc(OCc2c(F)cccc2F)c2nc(C)c(C(=O)NCC(C)(N)CCC)n2c1 (centres unmarked) [Example 355]", "MEC / µM": 0.30}
{"compound": "Cc1nc2c(OCc3c(F)cccc3F)cccn2c1C(=O)NCC(C)N (racemic) [Example 34, dihydrochloride]", "MEC / µM": 1.00}
{"compound": "Cc1nc2c(OCc3c(F)cccc3F)cccn2c1C(=O)NCCN1CCOCC1", "MEC / µM": 0.65}
{"compound": "Cc1nc2c(OCc3c(F)cccc3F)cccn2c1C(=O)NCC(C(C)C)N(C)C (single isomer, unassigned; ent-8) [Example 188]", "MEC / µM": 1.00}
{"compound": "Cc1nc2c(OCc3c(F)cccc3F)cc(Cl)cn2c1C(=O)NC(C)(C)CN", "MEC / µM": 0.65}
{"compound": "Cc1nc2c(OCc3c(F)cccc3F)cc(Cl)cn2c1C(=O)NCC(N)CC(F)(F)F (single isomer, unassigned) [Example 192]", "MEC / µM": 0.30}
{"compound": "Cc1cc(OCc2c(F)cccc2F)c2nc(C)c(C(=O)NC(C)(C)CN)n2c1", "MEC / µM": 0.30}

a: Cc1cc(OCc2c(F)cccc2F)c2nc(C)c(C(=O)NCC3(N)CCC3)n2c1
b: Cc1cc(OCc2c(F)cccc2F)c2nc(C)c(C(=O)NCC(C)(N)C(F)(F)F)n2c1 (single isomer, unassigned) [Example 241]
c: Cc1cc(OCc2c(F)cccc2F)c2nc(C)c(C(=O)NC(C#N)CN)n2c1 (racemic)
Lookup: // ascending sort on recorded MEC Output spec: a listing of the labels in the requested order.
Found: a, b, c
(a: 0.10 µM, b: 0.30 µM, c: 1.00 µM)

1: Cc1cc(OCc2c(F)cccc2F)c2nc(C)c(C(=O)NCC(N)c3cccc(OCCO)c3)n2c1 (racemic)
2: CCCC(C)(N)CNC(=O)c1c(C)nc2c(OCc3c(F)cccc3F)cc(C)cn12 (single isomer, unassigned) [Example 233]
3: CCC(C)(CN)NC(=O)c1c(C)nc2c(OCc3c(F)ccc(F)c3F)cc(C)cn12 (centres unmarked)
4: Cc1cc(OCc2c(F)cccc2F)c2nc(C)c(C(=O)NCC(C)(N)CCC(F)(F)F)n2c1 (single isomer, unassigned; enantiomer b) [Example 409]
5: Cc1nc2c(OCc3cccc(F)c3F)cccn2c1C(=O)NC(CN)c1ccc(F)c(F)c1 (centres unmarked)
Lookup: // ascending sort on recorded MEC Output spec: a listing of the labels in the requested order.
Found: 4, 2, 3, 5, 1
(4: 0.03 µM, 2: 0.10 µM, 3: 0.30 µM, 5: 1.00 µM, 1: 3.00 µM)

1: Cc1cc(OCc2c(F)cccc2F)c2nc(C)c(C(=O)NCC(N)c3ccc4c(c3)OCCO4)n2c1 (racemic)
2: CCCC[C@H](CN(C)C)NC(=O)c1c(C)nc2c(OCc3c(F)cccc3F)cccn12
3: Cc1cc(OCc2c(F)cccc2F)c2nc(C)c(C(=O)NCC(C)(N)CCC(F)(F)F)n2c1 (single isomer, unassigned; enantiomer a) [Example 408]
4: Cc1cc(OCc2c(F)cccc2F)c2nc(C)c(C(=O)NCC3(N)CCCCC3)n2c1
Lookup: // ascending sort on recorded MEC Output spec: a listing of the labels in the requested order.
Found: 3, 2, 4, 1
(3: 0.10 µM, 2: 0.30 µM, 4: 0.65 µM, 1: 3.00 µM)

I: CCCC(C)(N)CNC(=O)c1c(C)nc2c(OCc3ccccc3Br)cc(C)cn12 (centres unmarked)
II: CCC1CC(NC(=O)c2c(C)nc3c(OCc4c(F)cccc4F)cc(C)cn23)c2nc(C(F)(F)F)ccc2N1 (single isomer, unassigned; ent-8)
Lookup: Pick the one with the larger MEC: I vs II // caller expects the label of the chosen entry
Found: I
(I: 3.00 µM, II: 0.30 µM)
